- COND: in methanol, 293.15 K
VALUE TYPE: solubility (mole fraction)
Enter a number only.

Inquiry: Reported solubility (mole fraction), compound `CC(C)[C@H](NC(=O)OCC1c2ccccc2-c2ccccc21)C(=O)O` : ____
Reply text: 0.0321

* * *

- COND: in dimethyl carbonate, 293.15 K
VALUE TYPE: solubility (mole fraction)
Enter a number only.

Inquiry: Reported solubility (mole fraction), molecule `CC(C)[C@H](NC(=O)OCC1c2ccccc2-c2ccccc21)C(=O)O` : ____
Reply text: 0.00901

* * *

- COND: in n-butanol, 288.15 K
VALUE TYPE: solubility (mole fraction)

Inquiry: Reported solubility (mole fraction), compound `CC(C)[C@H](NC(=O)OCC1c2ccccc2-c2ccccc21)C(=O)O` : ____
Reply text: 0.019
